B1: Hairpin Ribozyme (parent)
chain: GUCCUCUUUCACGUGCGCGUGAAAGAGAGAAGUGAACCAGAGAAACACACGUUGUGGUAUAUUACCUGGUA

- Variants of: B1
- PROTOCOL NOTES: self-cleavage, relative activity (ratio to wild type); higher = more cleavage; co-transcriptional
Binary call on self-cleavage: True from 0.4 upward, False beneath that.

Look over these answered cases.
[
  {
    "MUTANT CODE": "G25A A35G",
    "GROUP": "True"
  },
  {
    "MUTANT CODE": "C16A A59G",
    "GROUP": "False"
  },
  {
    "MUTANT CODE": "U53C A71U",
    "GROUP": "True"
  }
]

**Query** Is the recorded value of self-cleavage equal to or greater than 0.4 for this variant? G29C A59G
**Result** False

**Query** Is the recorded value of self-cleavage equal to or greater than 0.4 for this variant? A35C U62A
**Result** False

**Query** Is the recorded value of self-cleavage equal to or greater than 0.4 for this variant? U7C C16U
**Result** True

**Query** Is the recorded value of self-cleavage equal to or greater than 0.4 for this variant? C18A U53A
**Result** True

**Query** Is the recorded value of self-cleavage equal to or greater than 0.4 for this variant? C4A G56U
**Result** False

**Query** Is the recorded value of self-cleavage equal to or greater than 0.4 for this variant? U60G G69C
**Result** False

**Query** Is the recorded value of self-cleavage equal to or greater than 0.4 for this variant? `U33A`
**Result** False
